# target: antiserum C2
# assay name: competition ELISA: peptide added to C2 on plate-bound hTNFα
Please provide measured OD450 with peptide for the entries that follow.
Note: the reply should be a number with no unit written.

OD450 with peptide for QVLFKGQGCPSTHVL [hTNFα peptide H(61-75)] is 1.73

OD450 with peptide for SEGLYLIYSQVLFKG [hTNFα peptide H(52-66)] is 1.35

OD450 with peptide for ANGVELRDNQLVVPS [hTNFα peptide H(38-52)] is 1.42

OD450 with peptide for HVLLTHTISRIAVSY [hTNFα peptide H(73-87)] is 1.79
